# Study system: T1, human MSLN-R3-3 polypeptide (human)
# T1 construct: also called human MSLN-R3-3 protein; hMSLN-R3-3
# Experiment: ELISA, coated antigen; antibody 10 nM
OD450 values by entry
Express it in OD450; write the number only.

// below: answered binders
>  <Binder>
S009-F3.38.10 (antibody, human IgG1, kappa, V domains shown, Human-murine chimeric antibody, human IgG1/kappa constant regions) VH: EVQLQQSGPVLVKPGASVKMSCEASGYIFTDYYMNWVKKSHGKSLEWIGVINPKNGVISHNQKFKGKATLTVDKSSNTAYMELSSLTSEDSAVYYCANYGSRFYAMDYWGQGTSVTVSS VL: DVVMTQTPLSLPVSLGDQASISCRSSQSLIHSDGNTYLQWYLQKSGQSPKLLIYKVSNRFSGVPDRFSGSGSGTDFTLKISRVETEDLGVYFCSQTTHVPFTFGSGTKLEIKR

>  <Scale unit>
OD450

>  <OD450>
0.1

$$$$
>  <Binder>
S009-F3.74.20 (antibody, human IgG1, kappa, V domains shown, Human-murine chimeric antibody, human IgG1/kappa constant regions) VH: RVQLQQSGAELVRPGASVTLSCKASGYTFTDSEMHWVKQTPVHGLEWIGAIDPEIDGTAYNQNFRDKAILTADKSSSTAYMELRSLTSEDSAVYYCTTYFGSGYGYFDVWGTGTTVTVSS VL: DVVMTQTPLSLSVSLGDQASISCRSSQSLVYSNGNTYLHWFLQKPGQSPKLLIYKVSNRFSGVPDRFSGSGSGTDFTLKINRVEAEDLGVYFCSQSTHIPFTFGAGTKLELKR

>  <Scale unit>
OD450

>  <OD450>
1.9

$$$$
>  <Binder>
S009-F3.7.3 (antibody, human IgG1, kappa, V domains shown, Human-murine chimeric antibody: murine VH/VL on human IgG1 heavy chain constant region and human kappa constant region) VH: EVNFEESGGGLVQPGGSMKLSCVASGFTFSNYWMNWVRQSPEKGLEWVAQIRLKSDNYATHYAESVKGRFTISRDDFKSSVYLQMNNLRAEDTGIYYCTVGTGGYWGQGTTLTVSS VL: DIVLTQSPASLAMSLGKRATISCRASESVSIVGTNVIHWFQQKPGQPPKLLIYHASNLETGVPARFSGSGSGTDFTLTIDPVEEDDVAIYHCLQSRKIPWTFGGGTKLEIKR

>  <Scale unit>
OD450

>  <OD450>
0.08

$$$$
>  <Binder>
S009-F3.16.1 (antibody, human IgG1, kappa, V domains shown, Human-murine chimeric antibody, human IgG1/kappa constant regions) VH: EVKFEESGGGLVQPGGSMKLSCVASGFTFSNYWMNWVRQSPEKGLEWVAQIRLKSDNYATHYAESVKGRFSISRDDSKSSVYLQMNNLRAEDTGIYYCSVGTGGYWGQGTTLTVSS VL: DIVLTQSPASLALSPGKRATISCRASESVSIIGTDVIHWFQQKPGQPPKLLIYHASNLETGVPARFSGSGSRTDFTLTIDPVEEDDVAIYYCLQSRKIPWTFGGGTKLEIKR

>  <Scale unit>
OD450

>  <OD450>
0.08

$$$$
>  <Binder>
S009-F3.80.22 (antibody, human IgG1, kappa, V domains shown, Human-murine chimeric antibody, human IgG1/kappa constant regions) VH: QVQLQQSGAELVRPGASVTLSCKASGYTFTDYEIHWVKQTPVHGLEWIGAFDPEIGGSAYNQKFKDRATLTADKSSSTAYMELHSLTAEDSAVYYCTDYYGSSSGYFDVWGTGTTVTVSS VL: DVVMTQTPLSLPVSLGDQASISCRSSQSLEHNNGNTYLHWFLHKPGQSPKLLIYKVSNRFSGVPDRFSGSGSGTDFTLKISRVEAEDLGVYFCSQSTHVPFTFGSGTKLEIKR

>  <Scale unit>
OD450

>  <OD450>
1.91

$$$$

Now for the binder whose OD450 we want.
(Q) Query (binder): S009-F3.45.21 (antibody, human IgG1, kappa, V domains shown, Human-murine chimeric antibody, human IgG1/kappa constant regions) VH: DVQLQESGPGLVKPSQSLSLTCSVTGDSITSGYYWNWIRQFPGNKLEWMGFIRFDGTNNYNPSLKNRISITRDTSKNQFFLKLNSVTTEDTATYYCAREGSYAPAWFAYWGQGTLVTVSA VL: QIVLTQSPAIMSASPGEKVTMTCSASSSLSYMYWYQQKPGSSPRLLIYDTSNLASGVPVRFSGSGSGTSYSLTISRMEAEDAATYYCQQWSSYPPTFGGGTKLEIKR ; field requested: OD450
(A) 0.08
